Source: ChEMBL document CHEMBL2029296

Target: Adenosine receptor A2b (Homo sapiens, UniProt P29275)
Sequence (P29275 whole entry): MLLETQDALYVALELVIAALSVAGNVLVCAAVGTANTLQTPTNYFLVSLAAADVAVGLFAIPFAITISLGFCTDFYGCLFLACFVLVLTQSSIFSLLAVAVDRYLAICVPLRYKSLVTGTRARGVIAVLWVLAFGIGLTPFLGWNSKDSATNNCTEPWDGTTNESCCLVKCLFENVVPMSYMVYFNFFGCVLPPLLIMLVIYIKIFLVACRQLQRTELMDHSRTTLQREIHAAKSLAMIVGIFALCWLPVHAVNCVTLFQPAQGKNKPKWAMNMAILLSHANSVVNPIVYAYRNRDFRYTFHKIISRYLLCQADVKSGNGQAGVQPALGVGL
Test: Antagonist activity at human A2B receptor expressed in CHO cells assessed as inhibition of NECA-mediated cAMP accumulation
Known IC50 of a selection of molecules
Respond with the bare value in nM.

// known answers, use as guide
SMILES REPR: O=c1c(-c2ccccc2)nnc2n(CCc3ccccc3)c3ccccc3n12
UOM: nM
IC50: 2.5
--
SMILES REPR: Cn1c2ccccc2n2c(=O)c(-c3ccco3)nnc12
UOM: nM
IC50: 20.4

Now consider the entry below.
Req: Returns the measured IC50 for the input molecule. Input: O=c1c(-c2ccccc2)nnc2n(-c3ccccc3)c3ccccc3n12
Resp: 15

###

Target: Adenosine receptor A2b (Homo sapiens)
Test: Antagonist activity at A2B receptor in human Caco2 cells assessed as reversal of NECA-induced cell death at 0.1 to 50 nM after 24 hrs by MTS assay
Assay type: functional, cell-based
Settings: Caco-2
Active and inactive are the calls of the source. The calls are words filed in the database; no cut-off is given here.
TEST READOUT: inhibition

// known answers, use as guide
SMILES REPR: O=c1c(-c2ccccc2)nnc2n(CCc3ccccc3)c3ccccc3n12
inhibition: Active

SMILES REPR: O=c1c(-c2ccco2)nnc2n(-c3ccccc3)c3ccccc3n12
inhibition: Active

SMILES REPR: O=c1c(-c2ccccc2)nnc2n(-c3ccc(Cl)cc3)c3ccccc3n12
inhibition: Active

SMILES REPR: O=c1c(-c2ccccc2)nnc2n(-c3ccccc3)c3ccc(Cl)cc3n12
inhibition: Active

SMILES REPR: O=c1c(-c2ccco2)nnc2n(-c3ccccc3)c3ccc(Cl)cc3n12
inhibition: Active

Req: Returns the measured inhibition for the input molecule. Input: O=c1c(-c2ccco2)nnc2n(-c3ccc(Cl)cc3)c3ccccc3n12
Resp: Active

Req: Request: Oc1c(-c2ccccc2)nnc2nc3ccccc3n12
Resp: Active

###

Protein target, amino acids: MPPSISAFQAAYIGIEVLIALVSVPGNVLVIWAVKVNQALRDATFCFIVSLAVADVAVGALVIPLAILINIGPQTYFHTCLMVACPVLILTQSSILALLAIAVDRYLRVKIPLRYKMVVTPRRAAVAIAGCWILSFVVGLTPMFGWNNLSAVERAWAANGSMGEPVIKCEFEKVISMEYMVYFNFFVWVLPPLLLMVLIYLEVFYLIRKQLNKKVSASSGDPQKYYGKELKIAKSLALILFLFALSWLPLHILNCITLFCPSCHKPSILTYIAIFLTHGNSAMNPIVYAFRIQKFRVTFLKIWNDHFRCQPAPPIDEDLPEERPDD
Known pKi of a selection of compounds
Field pKi (float): negative decimal logarithm of the concentration in molar.

SMILES REPR: O=c1c(-c2ccccc2)nnc2n(-c3ccc(Cl)cc3)c3ccccc3n12
pKi: 5.87

Req: Returns the measured pKi for the input compound. Input: Cn1c2ccccc2n2c(=O)c(-c3ccccc3)nnc12
Resp: 7.21

###

Known Ki of a selection of compounds
Target: Adenosine receptor A3 (Homo sapiens)
Sequence (P0DMS8 whole entry): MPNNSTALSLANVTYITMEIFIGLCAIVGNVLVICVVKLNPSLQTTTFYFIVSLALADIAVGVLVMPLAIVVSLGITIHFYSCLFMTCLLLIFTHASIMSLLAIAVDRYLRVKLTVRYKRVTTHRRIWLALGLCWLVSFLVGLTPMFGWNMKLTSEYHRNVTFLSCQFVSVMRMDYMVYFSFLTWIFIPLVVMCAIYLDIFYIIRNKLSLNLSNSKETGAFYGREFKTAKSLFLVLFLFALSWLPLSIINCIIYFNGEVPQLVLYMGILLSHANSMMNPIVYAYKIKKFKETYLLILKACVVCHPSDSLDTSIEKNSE
Experiment: Displacement of [125I]AB-MECA from human A3 adenosine receptor expressed in CHO cell membrane
Type: cell membranes

// known answers, use as guide
SMILES REPR: Oc1c(-c2ccccc2)nnc2nc3ccccc3n12
MEAS VALUE: > 1 µM
--
SMILES REPR: O=c1c(-c2ccco2)nnc2n(CCc3ccccc3)c3ccccc3n12
MEAS VALUE: > 1 µM
--
SMILES REPR: O=c1c(-c2ccco2)nnc2n(-c3ccccc3)c3ccc(Cl)cc3n12
MEAS VALUE: > 1 µM
--
SMILES REPR: O=c1c(-c2ccccc2)nnc2n(CCc3ccccc3)c3ccccc3n12
MEAS VALUE: 0.328 µM

Now consider the entry below.
Req: Returns the measured Ki for the input compound. Input: O=c1c(-c2ccco2)nnc2n(Cc3ccccc3)c3ccccc3n12
Resp: > 1 µM

###

Target: Adenosine receptor A2b (Homo sapiens) (UniProt P29275)
Experiment: Induction of A2B receptor-mediated cell viability of human Caco2 cells assessed as cell survival at 0.1 to 50 nM after 24 hrs by MTS assay
Assay type: cell-based
Settings: Caco-2
Calls of active or inactive are those of the source. No cut-off for these calls is given here.
TEST READOUT: Activity

SMILES REPR: Oc1c(-c2ccccc2)nnc2nc3ccccc3n12
Activity: inactive
//
SMILES REPR: O=c1c(-c2ccccc2)nnc2n(CCc3ccccc3)c3ccccc3n12
Activity: inactive
//
SMILES REPR: O=c1c(-c2ccccc2)nnc2n(-c3ccc(Cl)cc3)c3ccccc3n12
Activity: inactive
//
SMILES REPR: O=c1c(-c2ccco2)nnc2n(-c3ccc(Cl)cc3)c3ccccc3n12
Activity: inactive

Now consider the entry below.
Req: Returns the measured Activity for the input compound. Input: O=c1c(-c2ccccc2)nnc2n(-c3ccccc3)c3ccc(Cl)cc3n12
Resp: inactive

###

Target: Adenosine receptor A2b (Homo sapiens)
Assay: Antagonist activity at human A2B receptor expressed in CHO cells assessed as inhibition of NECA-mediated cAMP accumulation
TEST READOUT: pIC50
Field pIC50 (float): negative decimal logarithm of the concentration in molar.

// known answers, use as guide
SMILES REPR: O=c1c(-c2ccco2)nnc2n(CCc3ccccc3)c3ccccc3n12
TESTED SYSTEM: Adenosine receptor A2b (Homo sapiens)
pIC50: 8.27
--
SMILES REPR: O=c1c(-c2ccccc2)nnc2n(-c3ccc(Cl)cc3)c3ccccc3n12
TESTED SYSTEM: Adenosine receptor A2b (Homo sapiens)
pIC50: 8.62

Now consider the entry below.
Req: Returns the measured pIC50 for the input molecule. Input: Oc1c(-c2ccccc2)nnc2nc3ccccc3n12
Resp: 8.85

###

Known pIC50 of a selection of compounds
Biological target: Adenosine receptor A2b (Homo sapiens, UniProt P29275)
Sequence (P29275 whole entry): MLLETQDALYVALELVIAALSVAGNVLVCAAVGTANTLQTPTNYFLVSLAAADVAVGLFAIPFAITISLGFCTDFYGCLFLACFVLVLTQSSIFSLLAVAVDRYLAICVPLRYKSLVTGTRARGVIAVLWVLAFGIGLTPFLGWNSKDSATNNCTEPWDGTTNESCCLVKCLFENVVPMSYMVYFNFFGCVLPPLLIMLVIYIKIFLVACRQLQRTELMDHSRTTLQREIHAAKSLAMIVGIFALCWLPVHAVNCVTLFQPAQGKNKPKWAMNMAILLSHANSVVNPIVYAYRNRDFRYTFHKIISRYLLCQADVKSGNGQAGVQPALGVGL
Assay: Antagonist activity at human A2B receptor expressed in CHO cells assessed as inhibition of NECA-mediated cAMP accumulation
Field pIC50 (float): negative decimal logarithm of the concentration in molar.

SMILES REPR: O=c1c(-c2ccccc2)nnc2n(-c3ccccc3)c3ccc(Cl)cc3n12
TESTED SYSTEM: Adenosine receptor A2b (Homo sapiens, UniProt P29275)
pIC50: 8.51
--
SMILES REPR: O=c1c(-c2ccco2)nnc2n(-c3ccccc3)c3ccccc3n12
TESTED SYSTEM: Adenosine receptor A2b (Homo sapiens, UniProt P29275)
pIC50: 5.49
--
SMILES REPR: Cn1c2ccccc2n2c(=O)c(-c3ccccc3)nnc12
TESTED SYSTEM: Adenosine receptor A2b (Homo sapiens, UniProt P29275)
pIC50: 7.24
--
SMILES REPR: O=c1c(-c2ccco2)nnc2n(-c3ccccc3)c3ccc(Cl)cc3n12
TESTED SYSTEM: Adenosine receptor A2b (Homo sapiens, UniProt P29275)
pIC50: 5.11
--
SMILES REPR: O=c1c(-c2ccco2)nnc2n(Cc3ccccc3)c3ccccc3n12
TESTED SYSTEM: Adenosine receptor A2b (Homo sapiens, UniProt P29275)
pIC50: 8.00

Req: Returns the measured pIC50 for the input compound. Input: Oc1c(-c2ccco2)nnc2nc3ccccc3n12
Resp: 7.82

Req: Request: O=c1c(-c2ccccc2)nnc2n(Cc3ccccc3)c3ccccc3n12
Resp: 7.27

Req: Request: O=c1c(-c2ccco2)nnc2n(-c3ccc(Cl)cc3)c3ccccc3n12
Resp: 8.68

###

Known pKi of a selection of molecules
Sequence of the target: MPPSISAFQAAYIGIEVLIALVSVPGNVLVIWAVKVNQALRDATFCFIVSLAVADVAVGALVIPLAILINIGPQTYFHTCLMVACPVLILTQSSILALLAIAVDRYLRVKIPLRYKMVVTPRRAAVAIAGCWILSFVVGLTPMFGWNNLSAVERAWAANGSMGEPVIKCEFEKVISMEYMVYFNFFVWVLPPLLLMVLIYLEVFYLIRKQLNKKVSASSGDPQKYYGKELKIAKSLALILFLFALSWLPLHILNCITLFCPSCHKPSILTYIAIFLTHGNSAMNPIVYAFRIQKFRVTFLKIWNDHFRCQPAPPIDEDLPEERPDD
pKi: −log10 of the molar value.

SMILES REPR: O=c1c(-c2ccccc2)nnc2n(-c3ccccc3)c3ccc(Cl)cc3n12
pKi: < 5.00
//
SMILES REPR: O=c1c(-c2ccco2)nnc2n(-c3ccc(Cl)cc3)c3ccccc3n12
pKi: < 5.00

Req: Returns the measured pKi for the input molecule. Input: O=c1c(-c2ccccc2)nnc2n(CCc3ccccc3)c3ccccc3n12
Resp: < 5.00
